Cited source: ChEMBL document CHEMBL3870321

List of pIC50 values.
Assay: Inhibition of gamma-secretase in HEK293 cells expressing human APP Swedish/London mutant assessed as reduction in amyloid beta 40 level after 5 hrs by sandwich immunoassay
Assay type: cell-based
Details: HEK293, 5 h
Schema: pIC50 number; meaning minus log10 of the concentration expressed in molar units.

// below: answered compounds
O=C(CC1([C@H]2COC[C@@H](C3CC3)N2S(=O)(=O)c2ccc(F)cc2)CC1)N1CCC(N2CCCCC2)CC1 7.52
O=C(CC1([C@H]2CO[C@H]3CCC[C@H]3N2S(=O)(=O)c2ccc(Cl)cc2)CC1)N1CCC(CO)CC1 8.74
CC(C)(CO)N1CCN(C(=O)CC2([C@H]3COC[C@@H](C4CC4)N3S(=O)(=O)c3ccc(Cl)cc3)CC2)CC1 8.23

Turning now to a further compound:
For reference, reported pIC50 for O=C(CC1([C@H]2CO[C@H]3CCC[C@H]3N2S(=O)(=O)c2ccc(Cl)cc2)CC1)N1CC[C@@H](CO)C1 stands at 7.74
